Entries and their measured IC50 follow.
- Tested on: Hep G2 cell line
- test_details: solid tumor cell growth inhibition, MTT
- Assay type: cell-based, human
- conditions_used: Homo sapiens, HepG2; Hep G2, 72 h

Worked set:
compound | IC50
CCOCCNC(=O)C1C[C@@]2(C)C(CC[C@]3(C)C2CC=C2C4CC(C)(C)CC[C@]4(C(=O)OC)CC[C@]23C)C(C)(C)C1=O (stereo partly drawn) [BS-OA-053] | > 16 µg/mL
COC(=O)[C@]12CCC(C)(C)CC1C1=CCC3[C@@]4(C)CC(C(=O)NCCCN5CCOCC5)C(=O)C(C)(C)C4CC[C@@]3(C)[C@]1(C)CC2 (stereo partly drawn) [BS-OA-037] | 8.68 µg/mL

Next compound, please.
Look up IC50: CN1CCN(CCCNC(=O)C2C[C@]3(C)[C@H]4CC=C5[C@@H]6CC(C)(C)CC[C@]6(C(=O)O)CC[C@@]5(C)[C@]4(C)CC[C@H]3C(C)(C)C2=O)CC1 (stereo partly drawn) [BS-OA-110] > 16 µg/mL

---

Entries and their measured inhibition at 16 µg/mL follow.
- System: CNE cell line
- test_details: solid tumor cell growth inhibition, MTT
- Format: cell-based
- conditions_used: Homo sapiens, 16 μg/mL compound, 72 h, read-out: IR (cell proliferation inhibition rate)
Numbers only here, please. The scale is %.

Look up inhibition at 16 µg/mL: COC(=O)[C@]12CCC(C)(C)CC1C1=CCC3[C@@]4(C)CC(C(=O)NCCc5cccnc5)C(=O)C(C)(C)C4CC[C@@]3(C)[C@]1(C)CC2 (stereo partly drawn) [BS-OA-027] 51.3

Look up inhibition at 16 µg/mL: CCN(CC)CCNC(=O)C1C[C@@]2(C)C(CC[C@]3(C)C2CC=C2C4CC(C)(C)CC[C@]4(C(=O)O)CC[C@]23C)C(C)(C)C1=O (stereo partly drawn) [BS-OA-106] 44.3

Look up inhibition at 16 µg/mL: COC(=O)[C@]12CCC(C)(C)C[C@H]1C1=CC[C@@H]3[C@@]4(C)CC(C(=O)NCCN5CCOCC5)C(=O)C(C)(C)[C@@H]4CC[C@@]3(C)[C@]1(C)CC2 (stereo partly drawn) [BS-OA-059] 20.6

Look up inhibition at 16 µg/mL: CCN(CC)CCNC(=O)C1C[C@@]2(C)C(CC[C@]3(C)C2CC=C2C4CC(C)(C)CC[C@]4(C(=O)OC)CC[C@]23C)C(C)(C)C1=O (stereo partly drawn) [BS-OA-012] 98.8

Look up inhibition at 16 µg/mL: CC1(C)CC[C@]2(C(=O)O)CC[C@]3(C)C(=CC[C@@H]4[C@@]5(C)CC[C@H](O)C(C)(C)[C@@H]5CC[C@]43C)[C@@H]2C1 [OA, Oleanolic acid] 33.9

Look up inhibition at 16 µg/mL: COC(=O)[C@]12CCC(C)(C)CC1C1=CCC3[C@@]4(C)CC(C(=O)NCCc5ccccn5)C(=O)C(C)(C)C4CC[C@@]3(C)[C@]1(C)CC2 (stereo partly drawn) [BS-OA-032] 23.6

---

- System: Jurkat cell line
- test_details: leukemia cell growth inhibition, MTT
- Format: cell-based
- conditions_used: Homo sapiens, 72 h
metric: IC50

Look up IC50: CCOCCNC(=O)C1C[C@@]2(C)C(CC[C@]3(C)C2CC=C2C4CC(C)(C)CC[C@]4(C(=O)OC)CC[C@]23C)C(C)(C)C1=O (stereo partly drawn) > 16 mg/L

Look up IC50: COC(=O)[C@]12CCC(C)(C)CC1C1=CCC3[C@@]4(C)CC(C(=O)NCCCN(C)C)C(=O)C(C)(C)C4CC[C@@]3(C)[C@]1(C)CC2 (stereo partly drawn) 2.43 mg/L

Look up IC50: COC(=O)[C@]12CCC(C)(C)CC1C1=CCC3[C@@]4(C)CC(C(=O)NC5CC5)C(=O)C(C)(C)C4CC[C@@]3(C)[C@]1(C)CC2 (stereo partly drawn) > 16 mg/L
